From: ChEMBL document CHEMBL5442219

# SYSTEM TESTED: Beta-2 adrenergic receptor (Homo sapiens) (UniProt P07550)
# Sequence (P07550 whole entry, looked up): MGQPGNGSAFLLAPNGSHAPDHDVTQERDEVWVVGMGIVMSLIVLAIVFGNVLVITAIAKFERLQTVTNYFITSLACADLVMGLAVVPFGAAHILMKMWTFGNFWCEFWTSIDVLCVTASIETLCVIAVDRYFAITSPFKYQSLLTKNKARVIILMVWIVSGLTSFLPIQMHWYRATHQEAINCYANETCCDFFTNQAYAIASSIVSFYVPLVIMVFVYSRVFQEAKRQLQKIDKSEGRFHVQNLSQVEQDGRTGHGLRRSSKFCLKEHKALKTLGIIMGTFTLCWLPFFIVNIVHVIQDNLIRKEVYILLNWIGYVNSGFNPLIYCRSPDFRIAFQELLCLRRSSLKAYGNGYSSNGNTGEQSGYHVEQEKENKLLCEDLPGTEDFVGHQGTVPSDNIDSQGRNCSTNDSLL
# RUN PARAMETERS: Compound concentration 10 µM; call rule not given here
Please reply with one of these outcomes: True for active, False for inactive

Just curious, what result did C[C@H](Cc1cc2c(c(C(N)=O)c1)N(CCCO)CC2)NCCOc1ccccc1OCC(F)(F)F get here?
True

// return assay outcome for O=C(O)CC1CCC2(CC1)CCN(c1cc(OC(F)(F)F)ccc1Cl)CC2
False

----------
# SYSTEM TESTED: Histamine H3 receptor (Homo sapiens)
# RUN PARAMETERS: Compound concentration 10 µM
OBSERVABLE: inhibition (%)
# unit: % | format: bare number

| MOLECULE | OBSERVABLE | UNIT NAME | MEASURED RESULT |
| --- | --- | --- | --- |
| COc1ccc(S(=O)(=O)N2c3ccc(Cl)cc3[C@](O)(c3ccccc3Cl)[C@@H]2C(=O)N2CCC[C@H]2C(N)=O)cc1OC | inhibition | % | 7.89 |

Which inhibition is reported for this molecule? Cc1nc(C(=O)N2CCC[C@H]2Cc2nnc(-c3ccccc3)o2)c(-c2ccccc2F)s1
22.7

// lookup inhibition for CC(C)(C(=O)O)c1ccc(C(O)CCCN2CCC(C(O)(c3ccccc3)c3ccccc3)CC2)cc1 (stereo not drawn)
-3.95

----------
# SYSTEM TESTED: Histamine H4 receptor (Homo sapiens) (UniProt Q9H3N8)
# Sequence (Q9H3N8 whole entry): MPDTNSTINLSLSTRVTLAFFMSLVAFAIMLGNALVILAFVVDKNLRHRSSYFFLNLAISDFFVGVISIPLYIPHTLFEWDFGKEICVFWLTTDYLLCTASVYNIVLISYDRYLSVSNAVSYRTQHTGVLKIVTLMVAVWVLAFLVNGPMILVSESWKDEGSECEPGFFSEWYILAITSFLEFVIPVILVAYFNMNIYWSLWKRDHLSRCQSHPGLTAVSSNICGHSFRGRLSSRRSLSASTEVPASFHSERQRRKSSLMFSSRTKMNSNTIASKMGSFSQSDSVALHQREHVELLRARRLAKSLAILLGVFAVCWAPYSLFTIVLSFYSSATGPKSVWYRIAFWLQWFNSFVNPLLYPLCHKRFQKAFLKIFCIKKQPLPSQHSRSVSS
# RUN PARAMETERS: Compound concentration 10 µM; call rule not given here
Field 'call' accepts TRUE = active, FALSE = inactive

| COMPOUND | CLASS |
| --- | --- |
| c1nc(CC2CCNCC2)c[nH]1 | TRUE |
| COc1cc2nc(N3CCN(C(=O)c4ccco4)CC3)nc(N)c2cc1OC | FALSE |
| CCc1ccc(OCc2ccccc2C(=O)Nc2ccc3nc(C)cc(N)c3c2)cc1 | FALSE |

Called result for CC1CCN(CC[C@H]2CCCN2S(=O)(=O)c2cccc(O)c2)CC1
FALSE

How was Cc1ccccc1N1CCN(S(=O)(=O)C[C@]23CC[C@H](C[C@@H]2NC(=O)[C@@H](N)CCS(C)(=O)=O)C3(C)C)CC1 classified in this test?
FALSE

GET /call?item= CCCSc1nc(N[C@@H]2C[C@H]2c2ccc(F)c(F)c2)c2nnn([C@@H]3C[C@H](OCCO)[C@@H](O)[C@H]3O)c2n1 returns the recorded outcome of this test.
FALSE

What outcome does the record of this test show for CN[C@@H]1CCc2[nH]c3ccc(C(N)=O)cc3c2C1 ?
FALSE

Answer briefly: the call reported for COc1ccc(NC(=O)c2ccc(-c3ccc(-c4noc(C)n4)cc3C)cc2)cc1OCCN(C)C in this assay.
FALSE

Which outcome was entered for the compound O=C(O)Cn1c(C(=O)Nc2nc(-c3ccccc3Cl)cs2)cc2ccccc21 in this test?
FALSE

Status in this test for CCCCN(CC)c1nc(C)nc2c1c(C)cn2-c1c(C)cc(C)cc1C ?
FALSE

Outcome logged for Cc1nc(C#Cc2ccnc(Cl)c2)c(C)n1-c1ccc(OC(F)(F)F)cc1 in this assay:
FALSE

----------
molecules and their reported inhibition
# SYSTEM TESTED: Muscarinic acetylcholine receptor M1 (Homo sapiens)
# RUN PARAMETERS: Compound concentration 10 µM
Write it as a number; the unit % goes unstated.

| MOLECULE | MEASURED RESULT |
| --- | --- |
| COc1ccc(C2(O)OC(=O)C(c3ccc4c(c3)OCO4)=C2Cc2cc(OC)c(OC)c(OC)c2)cc1 (stereo unspecified) | -8.77 |
| Cc1nc(-c2ccc(-c3ccc(C(=O)N4CCc5cc6c(cc54)C4(CCN(C)CC4)CO6)cc3)c(C)c2)no1 | 66.4 |
| Cc1c(P(=S)(c2ccccc2)c2ccccc2)n2ccccc2[n+]1C/C=C/c1ccccc1 | 88.2 |

Look up inhibition for this molecule: CCc1cc2c(cc1CC)CC(NC[C@H](O)c1ccc(O)c3[nH]c(=O)ccc13)C2
-6.02

# inhibition lookup, item CNC[C@H](O)c1cccc(O)c1
7.7

What measured inhibition goes with Cc1nc2sccn2c(=O)c1CCN1CCC(=C(c2ccc(F)cc2)c2ccc(F)cc2)CC1 ?
18.5
